Listing: max response of selected compounds
tested on: HaCat; test: Cytotoxic Profiling of Annotated Libraries Using Quantitative High-Throughput Screening (AID 1296008); conditions: Five cell lines viability, CellTiter-Glo ATP luminescence, 48-72 h; stronger effect = lower value; further: on the % scale 0 is the no-effect control and ±100 the full control effect
Results filed as inconclusive are left out.
Experimental Readout: max response (%)

Compound | Target Desc | Experimental Readout | Numeric Result
CCOc1ccc(-n2c(C(C)N(Cc3cccnc3)C(=O)Cc3ccc(F)c(C(F)(F)F)c3)nc3ncccc3c2=O)cc1 (centres undefined) | HaCat | max response | -10.9
CC(C)c1ccc(NC(=O)Cn2cnc3c2c(=O)n(C)c(=O)n3C)cc1 | HaCat | max response | -14.6
COc1cc(/C=N\NC(=O)c2ccc3c(c2)OCO3)ccc1OCc1ccccc1 | HaCat | max response | -3.21
Cc1cn2cc(C(=O)N(C)CCO)cc(NC3CCOc4cccc(C)c43)c2n1 (centres undefined) | HaCat | max response | -18.4
C=C1CC[C@@H]2[C@](C)(CO)[C@H](O)CC[C@@]2(C)[C@@H]1C/C=C1/C(=O)OCC1O (some centres undefined) | HaCat | max response | -10.5
C=C1C(=O)O[C@@H]2/C=C(/C)[C@@H](OC(C)=O)C/C=C(\C)C[C@@H](OC(=O)/C(=C/CO)CO)[C@@H]12 | HaCat | max response | -3.88
COc1cc(C#N)ccc1S(=O)(=O)Nc1ccc2c(c1)cc(C)c(=O)n2C | HaCat | max response | -9.16
C[C@@H]1CC[C@@]23CC[C@]4(C)[C@@](C=CC5[C@@]6(C)CC[C@H](O)C(C)(C)C6CC[C@]54C)(OC2=O)C3[C@H]1C (some centres undefined) | HaCat | max response | -10.7
CC1(C)CCC(C)(C)c2cc(C#Cc3ccc(C(=O)O)cc3)ccc21 | HaCat | max response | -1.18
Cc1cccc(-c2[nH]ncc2-c2ccc(F)c(-c3cnn(CCO)c3)c2)n1 | HaCat | max response | 3.16
COc1cc(CN(CCN)C(=O)c2cccs2)ccc1OCc1ccccc1 | HaCat | max response | -3.01
Cn1c(SCC(=O)N2CCC[C@H]2C(=O)Nc2ccccc2-c2ccccc2)nc2ccccc21 | HaCat | max response | -3.91
OC1CCC(Nc2nc(-c3ccccc3)nc3[nH]ccc23)CC1 (centres undefined) | HaCat | max response | -12.5
COc1ccc(NC(=O)C2C[C@H](C)CC[C@H]2C(C)C)cc1 (some centres undefined) | HaCat | max response | -2.17
CC1=CC2/C=C(\C)CCC(O)C(=O)C(O)CC(=O)C23C(=O)NC(CC(C)C)C3C1C (centres undefined) | HaCat | max response | -78.4
Cc1ccc(F)cc1S(=O)(=O)N[C@@H]1CCN(Cc2ccc(OC(C)C)cc2)C1 | HaCat | max response | -5.2
Cc1cc(OCCCS(C)(=O)=O)cc(C)c1-c1cccc(COc2ccc3c(c2)OCC3CC(=O)O)c1 (centres undefined) | HaCat | max response | 0.974
CCC(C)CNCC(=O)N1CCC2SC=CC2C1COc1cccc(C)c1 (centres undefined) | HaCat | max response | 3.39
Cc1c(OCc2cccc(-c3ccc(C(=O)O)cc3)c2)cc2c(c1C)C(=O)C(C1CCCC1)C2 (centres undefined) | HaCat | max response | -12
CC(C)n1c(=O)c(C(=O)NC2CC3CCC(C2)N3C[C@@H](O)CN(C)S(C)(=O)=O)cc2ccccc21 (some centres undefined) | HaCat | max response | -16.2
C[C@H](Nc1cc2c(-c3ccc4c(c3)OCO4)noc2cn1)c1ccccc1 | HaCat | max response | -9.56
C[C@@H](c1ccc2nccn2c1)n1nnc2ncc(-c3cnn(C)c3)nc21 | HaCat | max response | -13
Cc1cn2c(n1)Cc1ccc(Cl)cc1C(c1ccc(N)cc1)=N2 | HaCat | max response | 1.21
CCC/C=C\C=C/CCc1cc(O)c([C@@H]2O[C@H](CO)[C@@H](O)[C@H](O)[C@H]2O)c(O)c1C(=O)OC | HaCat | max response | -26.9
CCO[C@H]1CN(C2CCC(O)(c3ccc4c(c3)OCO4)CC2)C[C@@H]1NC(=O)CNC(=O)c1cccc(C(F)(F)F)c1 (some centres undefined) | HaCat | max response | 1.49
C[C@H]1CC[C@@]2(OC1)O[C@H]1CC3[C@@H]4CC[C@@H]5C[C@@H](O[C@@H]6O[C@H](CO)[C@@H](O[C@@H]7O[C@@H](C)[C@H](O)[C@@H](O)[C@H]7O)[C@H](O)[C@H]6O[C@@H]6O[C@H](CO)[C@@H](O)[C@H](O)[C@H]6O)CC[C@]5(C)C4CC[C@]3(C)[C@H]1[C@@H]2C (some centres undefined) | HaCat | max response | -24.5
C[C@@H](NC(=O)[C@H](O)c1cc(F)cc(F)c1)C(=O)N[C@@H]1C(=O)N(C)c2ccccc2-c2ccccc21 | HaCat | max response | -11.4
COCCCNC(=O)c1ccc(Cn2c(=O)c3ccccc3n(Cc3ccc(C(C)C)cc3)c2=O)cc1 | HaCat | max response | 1.44
C/C1=C\[C@@H](C)C[C@@H](C)[C@@H](Cc2cnco2)OC(=O)/C(C)=C/[C@@H](C)C[C@@H](C)[C@@H](Cc2cnco2)OC1=O | HaCat | max response | -7.73
COc1c2c(c(C)c3c1C(=O)OC3)O[C@@]1(C)C[C@@H](OC(C)=O)[C@]34O[C@](OC)(CC[C@]3(C)[C@H]1C2)OC4(C)C | HaCat | max response | -9.22
COC(=O)CC[C@@H](C)C1CCC2C3CCC4C[C@H](OC(C)=O)CCC4(C)C3C[C@H](O)C21C (some centres undefined) | HaCat | max response | -5.91
COc1ccc(C#Cc2ccc(C(=O)N3CCC[C@@H](CO)C3)cc2)cc1 | HaCat | max response | 1.97
CCOc1ccc(Cc2nc(-c3c(C)nc4ccccn34)cs2)cc1 | HaCat | max response | -17.5
CCC[C@H](N[C@H]1CCc2cc(F)cc(F)c2C1)C(=O)Nc1cn(C(C)(C)CNCC(C)(C)C)cn1 | HaCat | max response | -2.54

====

# max response listing for each entry below
tested on: HaCat; assay: Cytotoxic Profiling of Annotated Libraries Using Quantitative High-Throughput Screening (AID 1296008); details: Five cell lines viability, CellTiter-Glo ATP luminescence, 48-72 h; stronger effect = lower value; further: on the % scale 0 is the no-effect control and ±100 the full control effect
Inconclusive results are not listed.
Experimental Readout: max response (%)

Compound | Target Desc | Experimental Readout | Numeric Result
Cc1sc2c(c1C)C(c1ccc(Cl)cc1)=N[C@H](CC(=O)NCCCCNC(=O)COc1cccc3c1C(=O)N([C@H]1CCC(=O)NC1=O)C3=O)c1nnc(C)n1-2 | HaCat | max response | -67.4
C/C=C(\C)C(=O)OC1C(C)C2(O)C(C=C(CO)CC3(O)C(=O)C(C)=CC32)C2C(C)(C)C12OC(=O)C(C)C (centres undefined) | HaCat | max response | -1.92
C=C1C(=O)O[C@@H]2C[C@H](C)C3=CC(=O)[C@H](O)[C@@]3(C)C[C@H]12 | HaCat | max response | 1.47
CN(C)c1ccnc2sc3c(=O)n(N4CCCCCC4)cnc3c12 | HaCat | max response | 1.16

====

target: Guanidinoacetate N-methyltransferase (Homo sapiens) (UniProt Q14353); experiment: Confirmatory Screen for Target Class Profiling of Small Molecule Inhibitors of Methyltransferases (AID 1745852); settings: MTase-Glo luminescence, SAH detection, recombinant enzyme; at 57.3 µM (top of the series) unless noted; further: on the % scale 0 is the no-effect control and ±100 the full control effect

Compound | Unit Symbol | activity change, negative = inhibition
N#Cc1ccc(N2N=C3c4ccc(C(=O)O)cc4CC[C@@H]3[C@@H]2C2CCCC2)cc1Cl | % | -0.344
Cc1ccc(C)c(-c2cc(C(F)(F)F)nn2-c2ccc(S(N)(=O)=O)cc2)c1 | % | -5.49
CCCc1cc2c(N3CCN(C4=NCC(C)(C)S4)CC3)ncnc2s1 | % | 1.29
COC1C=C(C)C(O)(CO)C2(C)CCCC(C)(C)C12 (stereo not given) | % | -5.83
NCC(CNc1nc(Nc2cccc(NC(=O)N3CCCC3)c2)ncc1I)C(=O)c1cccs1 (stereo not given) | % | 0
c1cc(NC2CCNCC2)nc(-c2cnc3ccccn23)c1 | % | -7.64
O=C(Nc1ccc(C(F)(F)F)cn1)N1CCN(c2ncccc2C(F)(F)F)CC1 | % | 0
NC(N)=NC(=O)c1cnn(-c2cccc3ncccc23)c1C1CC1 | % | -8.74
NC(=O)c1ccccc1Nc1ccnc(Nc2cccc(O)c2)n1 | % | 1.25
Fc1ccc2c(CCNCc3cccc(OCC(F)(F)C(F)F)c3)c[nH]c2c1 | % | 0.441
O=C([C@@H]1CCCN(c2ccc3[nH]c(C4(n5cc(Cl)cn5)CC4)nc3n2)C1)N1CCCC1 | % | 0
C=C1C(=O)OC2C(OC(=O)C=C(C)C)C(C)=C3C(=O)C=C(C)C3C(O)C12 (stereo not given) | % | -0.769
COC(=O)CC1OC(C)C2=C(O)c3c(O)cccc3C(=O)C23OC13 (stereo not given) | % | -3.96
O=C(NCCCc1ccccc1)c1cccc(-c2cc(O)c3ncccc3c2)c1 | % | -1.73
Cc1cc(NC(=O)c2cccc(NC(=O)/C=C/CN(C)C)c2)ccc1Nc1nccc(-c2cccnc2)n1 | % | 1.37
CC(C)c1cc2c(N3CCN(C4=NCC(C)(C)S4)CC3)ncnc2s1 | % | 0.38
CCOC(=O)N1CCC(CN(Cc2ccc(Cl)cc2)Cc2ccc([N+](=O)[O-])s2)C1 (stereo not given) | % | 1.91
